The reported measurements were obtained from ChEMBL document CHEMBL5257097.

Assay: Selectivity index, ratio of CC50 for cytotoxicity against dog MDCK cells infected with Influenza B virus assessed as reduction in cell viability by neutral dye based analysis to EC50 for antiviral activity against Influenza B virus infected in dog MDCK cells assessed as inhibition of viral replication by neutral red dye based analysis
Type: toxicity
Settings: read-out: Ratio CC50/EC50
MEASUREMENT_KIND: selectivity ratio
Answer using only a numeral; do not append any unit.

Exercise: What does the record list as selectivity ratio for `Nc1ncnn2c([C@@H]3N[C@H](CO)[C@@H](O)[C@H]3O)ccc12` ?
Solution: 38

---

Assay: Selectivity index, ratio of CC50 for cytotoxicity against dog MDCK cells infected with Influenza A virus H3N2 assessed as reduction in cell viability by neutral red dye based analysis to EC50 for antiviral activity against Influenza A virus H3N2 infected in dog MDCK cells assessed as inhibition of viral replication by neutral red dye based analysis
Format: toxicity
Conditions: read-out: Ratio CC50/EC50
MEASUREMENT_KIND: selectivity ratio

Exercise: What does the record list as selectivity ratio for `Nc1ncnn2c([C@@H]3N[C@H](CO)[C@@H](O)[C@H]3O)ccc12` ?
Solution: 44

---

Assay: Cytotoxicity against African green monkey Vero 76 cells infected with Punta Toro virus assessed as reduction in cell viability by neutral red dye based analysis
Format: toxicity
Conditions: chlorocebus sabaeus
MEASUREMENT_KIND: CC50 (µM)
The reply should contain only the number, in µM.

Exercise: What does the record list as CC50 for `Nc1ncnn2c([C@@H]3N[C@H](CO)[C@@H](O)[C@H]3O)ccc12` ?
Solution: 10

---

Below is a list of entries, each paired with its recorded pEC50 value.
Test system: dengue virus type 2
Experiment: Antiviral activity against DENV-2 infected in human Huh-7 cells assessed as reduction in virus-induced cytopathic effect measured after 15 to 30 mins by neutral red based analysis
Type: functional, organism-based
The meaning of pEC50 here: minus log10 of the concentration in molar units.

See these solved cases before continuing.
INSERT INTO assay_data (chemical_string, measurement_kind, assay_result) VALUES
  ('Nc1ncnn2c([C@@H]3N[C@H](CO)[C@@H](O)[C@H]3O)ccc12', 'pEC50', 6.42),
  ('Nc1ncnc2c([C@@H]3N[C@H](CO)[C@@H](O)[C@H]3O)c[nH]c12', 'pEC50', 4.80);

Next:
Exercise: What does the record list as pEC50 for `CC(C)OC(=O)[C@H](C)N[P@](=O)(OC[C@H]1N[C@@H](c2ccc3c(N)ncnn23)[C@H](O)[C@@H]1O)Oc1ccccc1` ?
Solution: 5.96

---

System: Influenza A virus
Assay: Antiviral activity against Influenza A virus H1N1 infected in dog MDCK cells assessed as inhibition of viral replication measured after 15 to 30 mins by visual analysis
Format: functional, organism-based
MEASUREMENT_KIND: pEC50
The meaning of pEC50 here: minus log10 of the concentration in molar units.

Exercise: What does the record list as pEC50 for `Nc1ncnn2c([C@@H]3N[C@H](CO)[C@@H](O)[C@H]3O)ccc12` ?
Solution: 6.49

---

Assay: Selectivity index, ratio of CC50 for cytotoxicity against African green monkey Vero 76 cells infected with MERS-CoV assessed as reduction in cell viability by visual analysis to EC50 for antiviral activity against MERS-CoV infected in African green monkey Vero 76 cells assessed as reduction in virus-induced cytopathic effect by visual analysis
Type: toxicity, cell-based
Conditions: read-out: Ratio CC50/EC50
MEASUREMENT_KIND: selectivity ratio
Answer using only a numeral; do not append any unit.

INSERT INTO measurements (chemical_string, assay_result) VALUES
  ('Nc1ncnn2c([C@@H]3N[C@H](CO)[C@@H](O)[C@H]3O)ccc12', 31);

Next:
Exercise: What does the record list as selectivity ratio for `Nc1ncnc2c([C@@H]3N[C@H](CO)[C@@H](O)[C@H]3O)n[nH]c12` ?
Solution: 4.9
